Settings: ethanol; stood at room temperature overnight
assay_endpoint: Solubility, Ethanol
I'd appreciate it if you wrote the number followed by its unit.

| test_smiles | result |
| --- | --- |
| C[N+](C)(C)CCCC[N+](C)(C)C.O=C(C=C([O-])C(F)(F)F)c1ccccc1.O=C(C=C([O-])C(F)(F)F)c1ccccc1.O=C(C=C([O-])C(F)(F)F)c1ccccc1.O=C(C=C([O-])C(F)(F)F)c1ccccc1.O=C(C=C([O-])C(F)(F)F)c1ccccc1.O=C(C=C([O-])C(F)(F)F)c1ccccc1.O=C(C=C([O-])C(F)(F)F)c1ccccc1.O=C(C=C([O-])C(F)(F)F)c1ccccc1.[Eu+3].[Eu+3] | 0.11 w/v % |

Please examine the following record next.
input: Entry C[N+](C)(C)CCCC[N+](C)(C)C.O=C(C=C([O-])C(F)(F)F)c1ccc2ccccc2c1.O=C(C=C([O-])C(F)(F)F)c1ccc2ccccc2c1.O=C(C=C([O-])C(F)(F)F)c1ccc2ccccc2c1.O=C(C=C([O-])C(F)(F)F)c1ccc2ccccc2c1.O=C(C=C([O-])C(F)(F)F)c1ccc2ccccc2c1.O=C(C=C([O-])C(F)(F)F)c1ccc2ccccc2c1.O=C(C=C([O-])C(F)(F)F)c1ccc2ccccc2c1.O=C(C=C([O-])C(F)(F)F)c1ccc2ccccc2c1.[Eu+3].[Eu+3] has what Solubility, Ethanol?
output: 0.19 w/v %

----------
Settings: ethyl acetate; stood at room temperature overnight
Below, each entry is listed alongside its reported Solubility, Ethyl Acetate.
Response body: numeric value in w/v %, unit text excluded.

| test_smiles | units_text | Solubility, Ethyl Acetate |
| --- | --- | --- |
| C[N+](C)(C)CCCC[N+](C)(C)C.O=C(C=C([O-])C(F)(F)F)c1ccc2ccccc2c1.O=C(C=C([O-])C(F)(F)F)c1ccc2ccccc2c1.O=C(C=C([O-])C(F)(F)F)c1ccc2ccccc2c1.O=C(C=C([O-])C(F)(F)F)c1ccc2ccccc2c1.O=C(C=C([O-])C(F)(F)F)c1ccc2ccccc2c1.O=C(C=C([O-])C(F)(F)F)c1ccc2ccccc2c1.O=C(C=C([O-])C(F)(F)F)c1ccc2ccccc2c1.O=C(C=C([O-])C(F)(F)F)c1ccc2ccccc2c1.[Tb+3].[Tb+3] | w/v % | 1.21 |

Next item in the queue.
input: Form field: reported Solubility, Ethyl Acetate of C[N+](C)(C)CCCC[N+](C)(C)C.O=C(C=C([O-])C(F)(F)F)c1cccs1.O=C(C=C([O-])C(F)(F)F)c1cccs1.O=C(C=C([O-])C(F)(F)F)c1cccs1.O=C(C=C([O-])C(F)(F)F)c1cccs1.O=C(C=C([O-])C(F)(F)F)c1cccs1.O=C(C=C([O-])C(F)(F)F)c1cccs1.O=C(C=C([O-])C(F)(F)F)c1cccs1.O=C(C=C([O-])C(F)(F)F)c1cccs1.[Eu+3].[Eu+3]
output: 0.88

----------
Readings of Solubility, Ethyl Acetate for the listed compounds
Conditions: ethyl acetate; stood at room temperature overnight
Unit w/v % implied. Number only.

| compound | assay_endpoint | units_text | number |
| --- | --- | --- | --- |
| C[N+](C)(C)CCCCCC[N+](C)(C)C.O=C(C=C([O-])C(F)(F)F)c1ccc2ccccc2c1.O=C(C=C([O-])C(F)(F)F)c1ccc2ccccc2c1.O=C(C=C([O-])C(F)(F)F)c1ccc2ccccc2c1.O=C(C=C([O-])C(F)(F)F)c1ccc2ccccc2c1.O=C(C=C([O-])C(F)(F)F)c1ccc2ccccc2c1.O=C(C=C([O-])C(F)(F)F)c1ccc2ccccc2c1.O=C(C=C([O-])C(F)(F)F)c1ccc2ccccc2c1.O=C(C=C([O-])C(F)(F)F)c1ccc2ccccc2c1.[Eu+3].[Eu+3] [Luminous Organic Compound 3] | Solubility, Ethyl Acetate | w/v % | 9.01 |

// moving on: another record for Solubility, Ethyl Acetate
input: Report Solubility, Ethyl Acetate for C[N+](C)(C)CCCC[N+](C)(C)C.O=C(C=C([O-])C(F)(F)F)c1ccc2ccccc2c1.O=C(C=C([O-])C(F)(F)F)c1ccc2ccccc2c1.O=C(C=C([O-])C(F)(F)F)c1ccc2ccccc2c1.O=C(C=C([O-])C(F)(F)F)c1ccc2ccccc2c1.O=C(C=C([O-])C(F)(F)F)c1ccc2ccccc2c1.O=C(C=C([O-])C(F)(F)F)c1ccc2ccccc2c1.O=C(C=C([O-])C(F)(F)F)c1ccc2ccccc2c1.O=C(C=C([O-])C(F)(F)F)c1ccc2ccccc2c1.[Al+3].[Al+3] [Luminous Organic Compound 11] please.
output: 1.60

----------
Assay: Fluorescence (photoluminescence) intensity in ethanol, fluorescence spectrophotometer RF-5300PC
Format: physicochemical
Settings: 25 mg of compound in 100 ml of ethanol

| compound | center of Luminous Wave |
| --- | --- |
| C[N+](C)(C)c1ccc([N+](C)(C)C)cc1.O=C(C=C([O-])C(F)(F)F)c1ccc2ccccc2c1.O=C(C=C([O-])C(F)(F)F)c1ccc2ccccc2c1.O=C(C=C([O-])C(F)(F)F)c1ccc2ccccc2c1.O=C(C=C([O-])C(F)(F)F)c1ccc2ccccc2c1.O=C(C=C([O-])C(F)(F)F)c1ccc2ccccc2c1.O=C(C=C([O-])C(F)(F)F)c1ccc2ccccc2c1.O=C(C=C([O-])C(F)(F)F)c1ccc2ccccc2c1.O=C(C=C([O-])C(F)(F)F)c1ccc2ccccc2c1.[Eu+3].[Eu+3] [Luminous Organic Compound 4] | (613 nm) |
| C[N+](C)(C)CCCC[N+](C)(C)C.O=C(C=C([O-])C(F)(F)F)c1cccs1.O=C(C=C([O-])C(F)(F)F)c1cccs1.O=C(C=C([O-])C(F)(F)F)c1cccs1.O=C(C=C([O-])C(F)(F)F)c1cccs1.O=C(C=C([O-])C(F)(F)F)c1cccs1.O=C(C=C([O-])C(F)(F)F)c1cccs1.O=C(C=C([O-])C(F)(F)F)c1cccs1.O=C(C=C([O-])C(F)(F)F)c1cccs1.[Eu+3].[Eu+3] [Luminous Organic Compound 8] | (613 nm) |

----------
Settings: xylene; stood at room temperature overnight
Measured Solubility, Xylene of individual entries

| test_smiles | assay_endpoint | result |
| --- | --- | --- |
| C[N+](C)(C)CC[N+](C)(C)C.O=C(C=C([O-])C(F)(F)F)c1ccc2ccccc2c1.O=C(C=C([O-])C(F)(F)F)c1ccc2ccccc2c1.O=C(C=C([O-])C(F)(F)F)c1ccc2ccccc2c1.O=C(C=C([O-])C(F)(F)F)c1ccc2ccccc2c1.O=C(C=C([O-])C(F)(F)F)c1ccc2ccccc2c1.O=C(C=C([O-])C(F)(F)F)c1ccc2ccccc2c1.O=C(C=C([O-])C(F)(F)F)c1ccc2ccccc2c1.O=C(C=C([O-])C(F)(F)F)c1ccc2ccccc2c1.[Eu+3].[Eu+3] | Solubility, Xylene | 0.10 w/v % |

input: Reported Solubility, Xylene, molecule C[N+](C)(C)CCCC[N+](C)(C)C.O=C(C=C([O-])C(F)(F)F)c1ccc2ccccc2c1.O=C(C=C([O-])C(F)(F)F)c1ccc2ccccc2c1.O=C(C=C([O-])C(F)(F)F)c1ccc2ccccc2c1.O=C(C=C([O-])C(F)(F)F)c1ccc2ccccc2c1.O=C(C=C([O-])C(F)(F)F)c1ccc2ccccc2c1.O=C(C=C([O-])C(F)(F)F)c1ccc2ccccc2c1.O=C(C=C([O-])C(F)(F)F)c1ccc2ccccc2c1.O=C(C=C([O-])C(F)(F)F)c1ccc2ccccc2c1.[Eu+3].[Eu+3] : ____
output: 0.10 w/v %

----------
Parameter: Fluorescence Intensity. Scope: all listed entries.
Assay: Fluorescence (photoluminescence) intensity in ethanol, fluorescence spectrophotometer RF-5300PC
Format: physicochemical
Settings: 25 mg of compound in 100 ml of ethanol

Solved cases (2 shown):
| molecule | Fluorescence Intensity |
| --- | --- |
| O=C(C=C([O-])C(F)(F)F)c1ccccc1.O=C(C=C([O-])C(F)(F)F)c1ccccc1.O=C(C=C([O-])C(F)(F)F)c1ccccc1.[Eu+3] [Metal Complex Intermediate 3] | 493 |
| O=C(C=C([O-])C(F)(F)F)c1ccc2ccccc2c1.O=C(C=C([O-])C(F)(F)F)c1ccc2ccccc2c1.O=C(C=C([O-])C(F)(F)F)c1ccc2ccccc2c1.[Eu+3] [Metal Complex Intermediate 1] | 665 |

Query molecule follows.
input: Request the reported Fluorescence Intensity associated with C[N+](C)(C)CCCC[N+](C)(C)C.O=C(C=C([O-])C(F)(F)F)c1ccc2ccccc2c1.O=C(C=C([O-])C(F)(F)F)c1ccc2ccccc2c1.O=C(C=C([O-])C(F)(F)F)c1ccc2ccccc2c1.O=C(C=C([O-])C(F)(F)F)c1ccc2ccccc2c1.O=C(C=C([O-])C(F)(F)F)c1ccc2ccccc2c1.O=C(C=C([O-])C(F)(F)F)c1ccc2ccccc2c1.O=C(C=C([O-])C(F)(F)F)c1ccc2ccccc2c1.O=C(C=C([O-])C(F)(F)F)c1ccc2ccccc2c1.[Eu+3].[Eu+3] [Luminous Organic Compound 2]
output: 744
